system: TNFα; assay: Inhibition of LPS induced TNFα in THP-1 human monocytes (EIA); format: cell-based; conditions: LPS induced THP-1 human monocytes
assay.endpoint: TNFα inhibition IC50 (ng/mL)
Kindly answer with a numeric value in ng/mL, unit omitted.

**Q:** Read off the recorded TNFα inhibition IC50 for CCCCCCCCCC[C@H](O)[C@@H]1CC[C@@H]([C@H](O)CC[C@@H](O)[C@@H]2CC[C@@H](CCCCCCCCCC3=C[C@@H](C)OC3=O)O2)O1
**A:** 4.08

**Q:** Read off the recorded TNFα inhibition IC50 for CCCCCC(O)CCCCC(O)C1CCC(C2CCC(C(O)CCCCCCCCCCCCC3=CC(C)OC3=O)O2)O1 (stereo not drawn)
**A:** 0.0249

**Q:** Read off the recorded TNFα inhibition IC50 for CCCCCCCCCCC(O)C1CCC(C2CCC(C(O)CCCCCCCCCCCCC3=CC(C)OC3=O)O2)O1 (stereo not drawn)
**A:** 0.116

**Q:** Read off the recorded TNFα inhibition IC50 for CCCCCCCCCC[C@H](O)[C@H]1CC[C@H]([C@H]2CC[C@H]([C@H](O)CCCCCCCCCC[C@@H](O)CC3=C[C@H](C)OC3=O)O2)O1
**A:** 0.124

**Q:** Read off the recorded TNFα inhibition IC50 for CCCCCCCCCC[C@@H](O)[C@H]1CC[C@H]([C@H]2CC[C@H]([C@H](O)CCCC[C@H](O)CCCCC[C@@H](O)CC3=C[C@H](C)OC3=O)O2)O1 [10-Hydroxyasimicin, 10-hydroxyasimicin]
**A:** 3.21

Value source: patent US9427425B2
